# Counts/minute bound per entry
target: T1, recombinant human IL-6 (human, UniProt P05231 30-212, labeled with radioactive iodine); assay: radioiodinated IL-6 on peptide array; experiment D1-D10
T1 construct: Labeled probe in solution, added to wells that carry the synthetic peptides; also called IL-6 ligand; Interleukin-6
TEST_READOUT: Counts/minute bound (counts/minute)

TFLVAGGSLAFGTLLCIAIVL [Peptide D4] : 32000
LRFKKTWKLRALKEGKTSMHP [Peptide D8] : 20400
VQDSSSVPLPTFLVAGGSLAF [Peptide D2] : 4520
FGTLLCIAIVLRFKKTWKLRA [Peptide D6] : 144000
ALKEGKTSMHPPYSLGQLVPE [Peptide D10] : 4970
CIAIVLRFKKTWKLRALKEGK [Peptide D7] : 52500
SVPLPTFLVAGGSLAFGTLLC [Peptide D3] : 19800
